- METHOD SUMMARY: Estimated solubility of VX-745 in solvents (solvent aliquot addition, visual inspection)
- Format: physicochemical
- COND: organic solvent or mixture, thermodynamic from solid, solvent methanol
PARAMETER: Solubility (µg/mL)

INSERT INTO results (compound, readout_value) VALUES
  ('O=c1ncn2nc(Sc3ccc(F)cc3F)ccc2c1-c1c(Cl)cccc1Cl [VX-745]', 10000);

* * *

- METHOD SUMMARY: Estimated solubility of VX-745 in solvents (solvent aliquot addition, visual inspection)
- Type: physicochemical
- COND: organic solvent or mixture, thermodynamic from solid, solvent acetonitrile
- Procedure: Solubilities of VX-745 in several solvents were estimated. The experiments were carried out by adding test solvents in aliquots to weighed portions of solid. […] Solubility numbers were calculated by dividing the total amount of solvent used to dissolve the sample by the weight of the sample. The actual solubilities may be greater than the numbers calculated because of the use of solvent aliquots that were too large or because of slow dissolution rates. […]
PARAMETER: Solubility (µg/mL)

INSERT INTO assay_data (item_smiles, readout_value) VALUES
  ('O=c1ncn2nc(Sc3ccc(F)cc3F)ccc2c1-c1c(Cl)cccc1Cl', 9000);
